Test system: Salmonella typhimurium
Assay: Antibiofilm activity in Salmonella Typhimurium ATCC 14028 assessed as inhibition of biofilm formation at 25 degC after 24 hrs
Assay type: functional, organism-based, Salmonella enterica subsp. enterica serovar Typhimurium
Conditions: Salmonella enterica, ATCC 14028, 24 h
pIC50: −log10 of the molar value.
Metric: pIC50

Below are worked cases with known answers.
- CCCCCCCCCCCn1c(-c2ccc(Cl)cc2)cnc1N: 5.39
- Nc1ncc(-c2ccc(Cl)cc2)n1C1CCC1: 4.94
- CCCCCCn1c(-c2ccccc2)cnc1N: 4.40
- CCCCn1c(-c2ccc([N+](=O)[O-])cc2)cnc1N: 3.94
- CCCCCCCCCCCCn1c(-c2ccc(-c3ccccc3)cc2)cnc1N: 3.78

[P] Nc1ncc(-c2ccccc2)n1C1CCCCCCC1
[Q] CCCCCCCCCn1c(-c2ccccc2)cnc1N
Task: Of the two listed items, P and Q , which carries the larger pIC50 figure? Give the label under which the chosen entry appears.
Result: Q

[I] Nc1ncc(-c2ccccc2)n1Cc1ccccc1
[II] CCn1c(-c2ccc(Br)cc2)cnc1N
[III] Nc1ncc(-c2ccc(-c3ccccc3)cc2)n1C1CCCCCCC1
Task: Hey, quick one: sort these by pIC50, low to high? Return value: ordered labels per request.
Result: II, I, III
(II: 3.90, I: 4.26, III: 4.64)
